These measurements were taken from ChEMBL document CHEMBL1157829.

Measured half-life accompanies every entry in the list below.
ASSAY_EXPLANATION: Half life in Wistar rat at 10 mg/kg, po and 1 mg/kg, iv
Assay type: ADME, organism-based
CONDITION_LABEL: in vivo

>  <COMPOUND>
CC(C)/N=C1\S/C(=C\c2ccc(OCCO)cc2)C(=O)N1c1ccccc1

>  <half-life>
2 h

$$$$
>  <COMPOUND>
CCC/N=C1\S/C(=C\c2ccc(OCC(O)CO)c(Cl)c2)C(=O)N1c1ccccc1C (racemic)

>  <half-life>
1.6 h

$$$$
>  <COMPOUND>
Cc1ccccc1N1C(=O)/C(=C/c2ccc(O)c(Cl)c2)S/C1=N\C(C)C

>  <half-life>
0.7 h

$$$$

====

ASSAY_EXPLANATION: Half life in Wistar rat at 3 mg/kg, po and 0.3 mg/kg, iv
Assay type: ADME, organism-based
CONDITION_LABEL: in vivo

>  <MOL_SMILES>
CCC/N=C1\S/C(=C\c2ccc(OC[C@@H](O)CO)c(Cl)c2)C(=O)N1c1ccccc1C

>  <half-life / h>
1.3

$$$$
>  <MOL_SMILES>
CCC/N=C1\S/C(=C\c2ccc(OCCO)c(Cl)c2)C(=O)N1c1ccccc1C

>  <half-life / h>
1.4

$$$$
>  <MOL_SMILES>
CCC/N=C1\S/C(=C\c2ccc(O)c(Cl)c2)C(=O)N1c1ccccc1C

>  <half-life / h>
0.2

$$$$

====

TARGET_SYSTEM: Sphingosine 1-phosphate receptor 1 (Homo sapiens)
Sequence (P21453 whole entry): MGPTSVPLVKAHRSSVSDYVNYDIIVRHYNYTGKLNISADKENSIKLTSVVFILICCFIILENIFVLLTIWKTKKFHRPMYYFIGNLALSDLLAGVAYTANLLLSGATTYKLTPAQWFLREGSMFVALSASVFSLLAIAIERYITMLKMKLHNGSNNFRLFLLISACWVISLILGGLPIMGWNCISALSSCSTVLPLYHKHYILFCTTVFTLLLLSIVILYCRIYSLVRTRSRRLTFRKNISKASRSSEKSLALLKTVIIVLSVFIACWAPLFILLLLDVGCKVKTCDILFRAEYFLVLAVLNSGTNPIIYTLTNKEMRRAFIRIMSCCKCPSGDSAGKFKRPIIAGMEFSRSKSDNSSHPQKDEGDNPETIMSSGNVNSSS
ASSAY_EXPLANATION: Agonist activity at human recombinant S1P1 receptor expressed in HEK cells by GTPgammaS binding assay
Type: functional, cell-based, HEK293

>  <MOL_SMILES>
CCC/N=C1\S/C(=C\c2ccc(OC[C@@H](O)CO)c(Cl)c2)C(=O)N1c1ccccc1C

>  <EC50, nM>
5.7

$$$$

====

ASSAY_EXPLANATION: Intrinsic clearance in human liver microsomes at 1 uM by LC-MS/MS analysis measured per mg of protein
Assay type: ADME, Microsome
ENDPOINT: microsomal CLint at 1 µM

>  <COMPOUND>
Cc1ccccc1N1C(=O)/C(=C/c2ccc(O)c(Cl)c2)S/C1=N\C(C)C

>  <ENDPOINT>
microsomal CLint at 1 µM

>  <DATA_VALUE>
27 µL/min/mg

$$$$
>  <COMPOUND>
CCC/N=C1\S/C(=C\c2ccc(O)c(Cl)c2)C(=O)N1c1ccccc1C

>  <ENDPOINT>
microsomal CLint at 1 µM

>  <DATA_VALUE>
7 µL/min/mg

$$$$
>  <COMPOUND>
CCC/N=C1\S/C(=C\c2ccc(OCCO)c(Cl)c2)C(=O)N1c1ccccc1C

>  <ENDPOINT>
microsomal CLint at 1 µM

>  <DATA_VALUE>
< 4 µL/min/mg

$$$$
>  <COMPOUND>
CC(C)/N=C1\S/C(=C\c2ccc(OCCO)cc2)C(=O)N1c1ccccc1

>  <ENDPOINT>
microsomal CLint at 1 µM

>  <DATA_VALUE>
4 µL/min/mg

$$$$
>  <COMPOUND>
CC(C)/N=C1\S/C(=C\c2ccc(O)c(Cl)c2)C(=O)N1c1ccccc1

>  <ENDPOINT>
microsomal CLint at 1 µM

>  <DATA_VALUE>
< 4 µL/min/mg

$$$$
>  <COMPOUND>
CCC/N=C1\S/C(=C\c2ccc(OC[C@@H](O)CO)c(Cl)c2)C(=O)N1c1ccccc1C

>  <ENDPOINT>
microsomal CLint at 1 µM

>  <DATA_VALUE>
4 µL/min/mg

$$$$
>  <COMPOUND>
CCC/N=C1\S/C(=C\c2ccc(OCC(O)CO)c(Cl)c2)C(=O)N1c1ccccc1C (racemic)

>  <ENDPOINT>
microsomal CLint at 1 µM

>  <DATA_VALUE>
4 µL/min/mg

$$$$
